Reference source: the RNAGym collection of RNA variant scans (doi:10.7554/elife.80360)

B1: HDV Ribozyme (parent)
chain: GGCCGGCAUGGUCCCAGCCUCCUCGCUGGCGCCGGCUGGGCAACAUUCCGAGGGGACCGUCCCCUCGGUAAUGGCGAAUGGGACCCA

Variants of: B1
Experimental Protocol: self-cleavage, relative activity (ratio to wild type); higher = more cleavage; co-transcriptional
Classify by measured self-cleavage: fulfilled if it is equal to or exceeds 0.2, not fulfilled if it is smaller.

Challenge: Threshold query (self-cleavage >= 0.2) on GGCAGGCAUGGUCCCAGCCUCCUCGCUGACGCCGGCUGGGCAACAUUCCGAGGGGACCGUCCCCUCGGUAAUGGCGAAUGGGACCCA [C4A G29A]
Response given: not fulfilled

Challenge: Threshold query (self-cleavage >= 0.2) on GGCCGGCAUGGUCCCAGCCUCCUCGCUGGCGCCGGCUGGGCAACAUUCCGAGGGGACCGUCCCCGCGGUAAUGGCGAAUGGGACCCA [U65G]
Response given: fulfilled

Challenge: Threshold query (self-cleavage >= 0.2) on GGCCGGCAUGGUCCCAGCCUCCUCGCUGGCGCCGGCUGUGCAACAUUCCGAGGGGACCGUCCCCUCGGUAAUCGCGAAUGGGACCCA [G39U G73C]
Response given: fulfilled

Challenge: Threshold query (self-cleavage >= 0.2) on GGCCGGCAUGGUGCCAGCCUCCUCGCUGGCGCCGGCUGGGCAACAUUCCGAGAGGACCGUCCCCUCGGUAAUGGCGAAUGGGACCCA [C13G G53A]
Response given: not fulfilled

Challenge: Threshold query (self-cleavage >= 0.2) on GGCCGGCAUGGUCCCAGCCUCCUCGCUGGCGCCGGCUGGUCAACAUUCCGAGGGGACCGUGCCCUCGGUAAUGGCGAAUGGGACCCA [G40U C61G]
Response given: fulfilled

Challenge: Threshold query (self-cleavage >= 0.2) on GGCCGGCAUGGUCCGAGCCUCCUCGGUGGCGCCGGCUGGGCAACAUUCCGAGGGGACCGUCCCCUCGGUAAUGGCGAAUGGGACCCA [C15G C26G]
Response given: fulfilled

Challenge: Threshold query (self-cleavage >= 0.2) on GGCCGGCAUGGUCCCAGGCUUCUCGCUGGCGCCGGCUGGGCAACAUUCCGAGGGGACCGUCCCCUCGGUAAUGGCGAAUGGGACCCA [C18G C21U]
Response given: not fulfilled

Challenge: Threshold query (self-cleavage >= 0.2) on GGCCGGCAUGGACCCAGCCUCCUCGCUGGCGCCGGCUGGGCAACAUUCCGAGGGGACCGUGCCCUCGGUAAUGGCGAAUGGGACCCA [U12A C61G]
Response given: not fulfilled

Challenge: Threshold query (self-cleavage >= 0.2) on GGCCGGAAUGGUCCCACCCUCCUCGCUGGCGCCGGCUGGGCAACAUUCCGAGGGGACCGUCCCCUCGGUAAUGGCGAAUGGGACCCA [C7A G17C]
Response given: not fulfilled

Challenge: Threshold query (self-cleavage >= 0.2) on GGCCGGCAUGGUCCCAGGCUCCUCGCUGGCGCCGGCUGGGCAACAUUCCGAGGGGACCGUCCCCUCGGUAAUGGCGAAUUGGACCCA [C18G G80U]
Response given: not fulfilled

Challenge: Threshold query (self-cleavage >= 0.2) on GGCCGGCAUGGUCCCAGCCUCCUCGCUGGCGCCGGCUGGGCAACAUUCGGAGGGGACCGUCCCCGCGGUAAUGGCGAAUGGGACCCA [C49G U65G]
Response given: fulfilled

Challenge: Threshold query (self-cleavage >= 0.2) on GGCCGGCAUGGUCACCGCCUCCUCGCUGGCGCCGGCUGGGCAACAUUCCGAGGGGACCGUCCCCUCGGUAAUGGCGAAUGGGACCCA [C14A A16C]
Response given: fulfilled

Challenge: Threshold query (self-cleavage >= 0.2) on GGCCGGCAUGUUCCCAGCCUCCUCGCUGGCGCCGGUUGGGCAACAUUCCGAGGGGACCGUCCCCUCGGUAAUGGCGAAUGGGACCCA [G11U C36U]
Response given: not fulfilled

Challenge: Threshold query (self-cleavage >= 0.2) on GGCCGGCAUAGUCCCAGCCUCCUCGCUGGCGCCGGCUGGGCAACAUUCCGAGCGGACCGUCCCCUCGGUAAUGGCGAAUGGGACCCA [G10A G53C]
Response given: fulfilled

Challenge: Threshold query (self-cleavage >= 0.2) on GGCCGGCAUGGUCCCAGCCUCCUCGCUGGCGCCGGCUGGGCAACAUUCCGAGGGGCCCGUCCCCUCGGUAAUGGCGAAUGGGAUCCA [A56C C84U]
Response given: fulfilled

Challenge: Threshold query (self-cleavage >= 0.2) on GGCCGGCAUGGUCCCAGCCUCCUCGCUGGCGCCGGCGGGGCAACAUUCCGAGGGGACCGUCCCCUCGUUAAUGGCGAAUGGGACCCA [U37G G68U]
Response given: not fulfilled

Challenge: Threshold query (self-cleavage >= 0.2) on GGCCGGCAUGGUCCCAGCCUCCUCGCUGGCGCCGGCUGCGCAACAUUCCGAGGGGACCGUCCCCUCGUUAAUGGCGAAUGGGACCCA [G39C G68U]
Response given: fulfilled

Challenge: Threshold query (self-cleavage >= 0.2) on GGCCGGCAUGGUCCCAGCCUCCUCGCUGGCUCCGGCUGGGCAACAUUCCGAGGGGACCGUCCCCUCGGUAAGGGCGAAUGGGACCCA [G31U U72G]
Response given: not fulfilled

Challenge: Threshold query (self-cleavage >= 0.2) on GGCCGGCAUGGUCCCAGCCUCCUCGCUGGCGCCGGCUGGGCAACAUUCCGAGAGGACCGUCCCCUCGGUAAUGUCGAAUGGGACCCA [G53A G74U]
Response given: fulfilled

Challenge: Threshold query (self-cleavage >= 0.2) on GGCCGGCAUGGUCCCAGCCUCCUCGCUGGCGCCGGCUGGGCAACGUUCCGAGGGGACCGUCCCCUCGGUAAUGGCGCAUGGGACCCA [A45G A77C]
Response given: not fulfilled

Challenge: Threshold query (self-cleavage >= 0.2) on GGCCGGCAUGGUCCCAGCCUCCUCGCUGGCGCCGGCUGGGCAACAUUCCGAAGGGACCGUCCCCUCGGUAAUGGCGAUUGGGACCCA [G52A A78U]
Response given: fulfilled

Challenge: Threshold query (self-cleavage >= 0.2) on GGCCGGCAUGGUCCCAGCCUCCUCGCUGGCGCCGGCUGGACAACAUUCCGAGGGGACCGUCCUCUCGGUAAUGGCGAAUGGGACCCA [G40A C63U]
Response given: fulfilled

Challenge: Threshold query (self-cleavage >= 0.2) on GGCCGGCAUGGUCCCAGCCUCCUCGCUGGCGCCGGCUGGGCAACAUUCCGAGGGGACCGUCCCCUCGGUAAUGGCGACUGAGACCCA [A78C G81A]
Response given: not fulfilled

Challenge: Threshold query (self-cleavage >= 0.2) on GGCCGGCAUGGUCCCAGCCUCCUCGCGGGCGCCGGCUGGGCAACAUUCCGAGGGGACCGUCCCCUCGGUAAUUGCGAAUGGGACCCA [U27G G73U]
Response given: not fulfilled

Challenge: Threshold query (self-cleavage >= 0.2) on GGCCGGCAUGGUCCCAGCCUCCUCGCUGGCGCCGUCUGGGCAACAUUCCGAGGGGACCGUCCCCUCGGUCAUGGCGAAUGGGACCCA [G35U A70C]
Response given: fulfilled

Challenge: Threshold query (self-cleavage >= 0.2) on GGCCGGCAUGGUCCCAGCCUCCUCGCUGGCGCCGGCUGGGCAACAGUCCGAGGGGACCGUCCCCUCGGUAAUGGCCAAUGGGACCCA [U46G G76C]
Response given: fulfilled
